methodDescription: chemical genetic growth profiling, strain panel (AID 1159580);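 further: tested at 20 µM; growth read once vehicle control cultures reached saturation at 30 °C; 1 = growth at the plate median or of vehicle wells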
conditionDescription: S. cerevisiae deletion strains, growth OD, locus YGL253W, strain hxk2
Out of some 5,500 compounds screened, about 2,000 (36%) were called active. Roughly 18% stayed inconclusive and do not appear here. No stated cut-off is given here; in the data, active means normalized growth mostly below about 0.91 (no sharp cut-off); inconclusive means no clear call, values can overlap the other calls; inactive means mostly above about 0.92. This is one part of the list.
Write down one outcome, taken from y for active, n for inactive

NNc1nncc2ccccc12 | n
CC1=NS(=O)(=O)c2cc(Cl)ccc2N1 | n
CC(=O)O[C@H]1CC[C@@]2(C)C(CC[C@]3(C)C2CC=C2C4CC(C)(C)CC[C@]4(C)CC[C@]23C)C1(C)C (stereo not given in full) | n

Call for entry CC1OC(=O)C(C(C)C)NC(=O)C(C(C)C)OC(=O)C(C(C)C)NC(=O)C(C)OC(=O)C(C(C)C)NC(=O)C(C(C)C)OC(=O)C(C(C)C)NC(=O)C(C)OC(=O)C(C(C)C)NC(=O)C(C(C)C)OC(=O)C(C(C)C)NC1=O (stereo not given) :
y

---

methodDescription: chemical genetic growth profiling, strain panel (AID 1159580);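 further: tested at 20 µM; growth read once vehicle control cultures reached saturation at 30 °C; 1 = growth at the plate median or of vehicle wells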
conditionDescription: S. cerevisiae deletion strains, growth OD, locus YBR021W, strain FUR4, active compounds read low
About 2,000 (36%) of roughly 5,500 compounds were called active. Roughly 18% stayed inconclusive and do not appear here. The list shows a part of the results.
Lab note: anything with normalized growth below 1 is marked true; values at 1 or higher are marked false.

Before answering, review these 2 worked examples.
CCOP(=S)(OCC)Oc1cc(C)nc(C(C)C)n1 | false
OC(CCN1CCCC1)(c1ccccc1)C1CCCCC1 (stereo unspecified) | true

For the next question, use this compound.
Could you please tell me whether normalized growth recorded for COc1c(CC(=O)c2cc3c(cc2O)OC(C)(C)C(O)C3)ccc2c1C=CC(C)(C)O2 (stereo unspecified) is less than 1?
true

---

methodDescription: chemical genetic growth profiling, strain panel (AID 1159580);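 further: tested at 20 µM; growth read once vehicle control cultures reached saturation at 30 °C; 1 = growth at the plate median or of vehicle wells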
conditionDescription: S. cerevisiae deletion strains, growth OD, locus YML032C, strain rad52
The whole screen tested about 5,500 compounds, of which about 2,000 (36%) were called active. Another 18% or so got no clear call; they are omitted. Rule as the data show it: active = normalized growth mostly below about 0.91 (no sharp cut-off); inconclusive = no clear call, values can overlap the other calls; inactive = mostly above about 0.92. Some of the results follow.
Choose the fitting class; nothing outside true (1) (active), false (0) (inactive) is accepted.

What classification did CNCc1ccccc1 end up with in this test?
false (0)

Recorded test call requested for COC1=C[C@@H]2[C@@H]3Cc4ccc(OC)c(O)c4[C@]2(CCN3C)CC1=O
false (0)

Entry C[C@@H]1CC[C@H]2[C@@H](C)C(=O)O[C@@H]3O[C@@]4(C)CC[C@@H]1[C@]32OO4 : call = ?
true (1)

Please share the test call associated with O=C1c2c(O)cccc2Cc2cccc(O)c21 .
false (0)

Which outcome was entered for the compound CCC(C)C(=O)O[C@H]1[C@H](O)C2C(CN3CC(C)CCC3[C@@]2(C)O)C2C[C@]34O[C@]5(O)C(OC(=O)C(C)(O)CC)CC[C@@]3(C)C5C(OC(C)=O)[C@@H](OC(C)=O)C4[C@@]21O (stereo partly specified) in this test?
false (0)

State the result this test recorded for C[C@@H]1CC[C@H]2[C@@H](C)C(O)O[C@@H]3O[C@@]4(C)CC[C@@H]1[C@]32OO4 (stereo partly specified) .
true (1)

---

methodDescription: chemical genetic growth profiling, strain panel (AID 1159580);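 further: tested at 20 µM; growth read once vehicle control cultures reached saturation at 30 °C; 1 = growth at the plate median or of vehicle wells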
conditionDescription: S. cerevisiae deletion strains, growth OD, locus YIL066C, strain RNR3, active compounds read low
Out of some 5,500 compounds screened, about 2,000 (36%) were called active. Inconclusive results (about 18%) are left out. Some of the results follow.
Catalogue of compounds with associated normalized growth
Please reply with the number alone, leaving off any unit.

Sample Cc1cc(C(C)(C)C)c(O)c(C(C)(C)C)c1 ; normalized growth observed: 0.934

Quick note, normalized growth for COc1cccc(OC)c1OCCNCC1COc2ccccc2O1 (configuration not stated) landed at 1.01

The reported numbers originate from PubChem BioAssay AID1159580.
